Task for the reader: assign each of the following compounds its reported solubility.
- Assay Text: Solubility of compound in phosphate buffer
- Format: physicochemical
Form entry: value (mg/mL) — number only.

State the recorded solubility for this entry: "C[C@]12N3Cc4c(OCCCC(=O)[O-])ccc(OCCCC(=O)[O-])c4CN1C(=O)N1CN4C(=O)N5CN6C(=O)N7CN8C(=O)N9Cc%10c(OCCCC(=O)[O-])ccc(OCCCC(=O)[O-])c%10CN%10C(=O)N(CN%11C(=O)N(CN%12C(=O)N(CN(C3=O)[C@]12C)[C@@H]4[C@H]%125)[C@@H]6[C@H]%117)[C@]8(C)[C@@]9%10C.[Na+].[Na+].[Na+].[Na+]" 549

Record request: solubility value, item "C[C@]12N3Cc4c(c(OCCCS(=O)(=O)[O-])c5ccccc5c4OCCCS(=O)(=O)[O-])CN1C(=O)N1CN4C(=O)N5CN6C(=O)N7CN8C(=O)N9Cc%10c(c(OCCCS(=O)(=O)[O-])c%11ccccc%11c%10OCCCS(=O)(=O)[O-])CN%10C(=O)N(CN%11C(=O)N(CN%12C(=O)N(CN(C3=O)[C@]12C)[C@@H]4[C@H]%125)[C@@H]6[C@H]%117)[C@]8(C)[C@@]9%10C.[Na+].[Na+].[Na+].[Na+]" 29.5

Report solubility for "C[C@]12N3Cc4c(c(OCCCC(=O)[O-])c5ccccc5c4OCCCC(=O)[O-])CN1C(=O)N1CN4C(=O)N5CN6C(=O)N7CN8C(=O)N9Cc%10c(c(OCCCC(=O)[O-])c%11ccccc%11c%10OCCCC(=O)[O-])CN%10C(=O)N(CN%11C(=O)N(CN%12C(=O)N(CN(C3=O)[C@]12C)[C@@H]4[C@H]%125)[C@@H]6[C@H]%117)[C@]8(C)[C@@]9%10C.[Na+].[Na+].[Na+].[Na+]" please. 293

Dear colleague, I am looking for the recorded solubility of the following compound: "Cc1c(C)c(OCCCC(=O)[O-])c2c(c1OCCCC(=O)[O-])CN1C(=O)N3CN4C(=O)N5CN6C(=O)N7CN8C(=O)N9Cc%10c(c(OCCCC(=O)[O-])c(C)c(C)c%10OCCCC(=O)[O-])CN%10C(=O)N(CN%11C(=O)N(CN%12C(=O)N(CN%13C(=O)N(C2)[C@]1(C)[C@]%133C)[C@@H]4[C@@H]5%12)[C@@H]6[C@@H]7%11)[C@]8(C)[C@]%109C.[Na+].[Na+].[Na+].[Na+]" 400

Where these numbers come from: ChEMBL document CHEMBL5385912
